Source of measurements: patent US20260248972A1

- EXPERIMENT SUMMARY: in vivo
- TEST CONDITIONS: BALB/c nude, mouse, in vivo, iv, total radioactivity, % ID/g Blood
QUANTITY NAME: tissue uptake at 24 h
Kindly write the number and append the unit.

What does the record list as tissue uptake at 24 h for C[C@@H](O)[C@H](NC(=O)[C@@H]1CSSC[C@H](NC(=O)[C@@H](Cc2ccccc2)NC(=O)COCCOCCNC(=O)[C@H](CCCCNC(=O)c2cccc(NC(=O)N[C@@H]3CN(C4CCCCC4)c4ccccc4N(CC(=O)C(C)(C)C)C3=O)c2)NC(=O)CN2CCN(CC(=O)O)CCN(CC(=O)O)CCN(CC(=O)O)CC2)C(=O)N[C@@H](Cc2ccc(O)cc2)C(=O)N[C@H](Cc2c[nH]c3ccccc23)C(=O)N[C@@H](CCCCN)C(=O)N[C@@H]([C@@H](C)O)C(=O)N1)C(=O)O [Compound 177Lu-I-37, metal not drawn] ? 0.18 %ID/g

====

- EXPERIMENT SUMMARY: in vivo
- TEST CONDITIONS: BALB/c nude, mouse, in vivo, iv, total radioactivity, % ID/g Kidney
Entries and their measured tissue uptake at 4 h follow.
Return type: number; implicit unit %ID/g.

MOLECULE: CC(C)(C)C(=O)CN1C(=O)[C@H](NC(=O)Nc2cccc(C(=O)N[C@@H](CCC(=O)N[C@@H](CCC(=O)N[C@@H](CCC(=O)N[C@@H](CCCCNC(=O)COCCOCCNC(=O)COCCOCCNC(=O)CCC(C(=O)O)N3CCN(CC(=O)O)CCN(CC(=O)O)CCN(CC(=O)O)CC3)C(N)=O)C(=O)O)C(=O)O)C(=O)O)c2)CN(C2CCCCC2)c2ccccc21 (some centres unmarked) [^177Lu-C-4, metal not drawn, reference compound]
MEASURE UNIT: %ID/g
tissue uptake at 4 h: 3.38

Given CCCC[C@H](NC(=O)[C@H](Cc1c[nH]c2ccccc12)NC(=O)CNC(=O)[C@H](Cc1ccc(O)cc1)NC(=O)[C@H](C)NC(=O)[C@@H](CCC(=O)O)NC(=O)[C@@H](CCC(=O)O)NC(=O)[C@@H](CCC(=O)O)NC(=O)[C@@H](CCC(=O)O)NC(=O)[C@@H](CCC(=O)O)NC(=O)[C@@H](CCC(=O)O)NC(=O)CN1CCN(CC(=O)O)CCN(CC(=O)O)CCN(CC(=O)O)CC1)C(=O)N[C@@H](CC(=O)O)C(=O)N[C@@H](Cc1ccccc1)C(N)=O [^177Lu-C-2, metal not drawn, reference compound] , state its recorded tissue uptake at 4 h. 2.72

Input C[C@@H](O)[C@H](NC(=O)[C@@H]1CSSC[C@H](NC(=O)[C@@H](Cc2ccccc2)NC(=O)[C@H](CCCCNC(=O)COCCOCCNC(=O)c2cccc(NC(=O)N[C@@H]3CN(C4CCCCC4)c4ccccc4N(CC(=O)C(C)(C)C)C3=O)c2)NC(=O)CN2CCN(CC(=O)O)CCN(CC(=O)O)CCN(CC(=O)O)CC2)C(=O)N[C@@H](Cc2ccc(O)cc2)C(=O)N[C@H](Cc2c[nH]c3ccccc23)C(=O)N[C@@H](CCCCN)C(=O)N[C@@H]([C@@H](C)O)C(=O)N1)C(=O)O [^177Lu-I-36, metal not drawn] 20.7

Also need C[C@@H](O)[C@H](NC(=O)[C@@H]1CSSC[C@H](NC(=O)[C@@H](Cc2ccccc2)NC(=O)COCCOCCNC(=O)[C@H](CCCCNC(=O)c2cccc(NC(=O)N[C@@H]3CN(C4CCCCC4)c4ccccc4N(CC(=O)C(C)(C)C)C3=O)c2)NC(=O)CN2CCN(CC(=O)O)CCN(CC(=O)O)CCN(CC(=O)O)CC2)C(=O)N[C@@H](Cc2ccc(O)cc2)C(=O)N[C@H](Cc2c[nH]c3ccccc23)C(=O)N[C@@H](CCCCN)C(=O)N[C@@H]([C@@H](C)O)C(=O)N1)C(=O)O [Compound 177Lu-I-37, metal not drawn] , thanks. 22.5

What do we get for C[C@@H](O)[C@H](NC(=O)[C@@H]1CSSC[C@H](NC(=O)[C@@H](Cc2ccccc2)NC(=O)[C@H](CCCCNC(=O)c2cccc(NC(=O)N[C@@H]3CN(C4CCCCC4)c4ccccc4N(CC(=O)C(C)(C)C)C3=O)c2)NC(=O)COCCOCCNC(=O)CN2CCN(CC(=O)O)CCN(CC(=O)O)CCN(CC(=O)O)CC2)C(=O)N[C@@H](Cc2ccc(O)cc2)C(=O)N[C@H](Cc2c[nH]c3ccccc23)C(=O)N[C@@H](CCCCN)C(=O)N[C@@H]([C@@H](C)O)C(=O)N1)C(=O)O [^177Lu-I-35, metal not drawn] ? 18.5

====

Relative Binding Affinity SSTR2 values for the compounds below.
- SYSTEM: SSTR2 (Rattus norvegicus, UniProt P30680)
- Construct: host or cells: AR42J cells
- Sequence (P30680 whole entry): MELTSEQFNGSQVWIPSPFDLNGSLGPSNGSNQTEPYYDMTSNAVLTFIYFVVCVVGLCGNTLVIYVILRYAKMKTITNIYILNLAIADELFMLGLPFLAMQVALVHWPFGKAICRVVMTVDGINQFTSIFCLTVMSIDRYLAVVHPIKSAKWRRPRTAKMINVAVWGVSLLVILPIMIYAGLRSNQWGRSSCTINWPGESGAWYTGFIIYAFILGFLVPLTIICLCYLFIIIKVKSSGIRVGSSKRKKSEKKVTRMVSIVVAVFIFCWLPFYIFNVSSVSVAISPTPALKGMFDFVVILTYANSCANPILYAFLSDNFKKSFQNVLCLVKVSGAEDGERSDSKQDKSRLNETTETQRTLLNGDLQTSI
- EXPERIMENT SUMMARY: Competitive cell-binding assay on AR42J cells with 125I-C1 as competitive ligand
Could you keep your reply to the number by itself?

COMPOUND: C[C@@H](O)[C@H](NC(=O)[C@@H]1CSSC[C@H](NC(=O)[C@@H](Cc2ccccc2)NC(=O)[C@H](CCCCNC(=O)c2cccc(NC(=O)N[C@@H]3CN(C4CCCCC4)c4ccccc4N(CC(=O)C(C)(C)C)C3=O)c2)NC(=O)CN2CCN(CC(=O)O)CCN(CC(=O)O)CCN(CC(=O)O)CC2)C(=O)N[C@@H](Cc2ccc(O)cc2)C(=O)N[C@H](Cc2c[nH]c3ccccc23)C(=O)N[C@@H](CCCCN)C(=O)N[C@@H]([C@@H](C)O)C(=O)N1)C(=O)O [Compound I-34, DOTA-K(Z360)-f[CYwKTC]T-OH]
Relative Binding Affinity SSTR2: 1.49

Alright, here's another compound for you.
Need Relative Binding Affinity SSTR2, item C[C@@H](O)[C@H](NC(=O)[C@@H]1CSSC[C@H](NC(=O)[C@@H](Cc2ccccc2)NC(=O)COCCOCCNC(=O)[C@H](CCCCNC(=O)COCCOCCNC(=O)c2cccc(NC(=O)N[C@@H]3CN(C4CCCCC4)c4ccccc4N(CC(=O)C(C)(C)C)C3=O)c2)NC(=O)CN2CCN(CC(=O)O)CCN(CC(=O)O)CCN(CC(=O)O)CC2)C(=O)N[C@@H](Cc2ccc(O)cc2)C(=O)N[C@H](Cc2c[nH]c3ccccc23)C(=O)N[C@@H](CCCCN)C(=O)N[C@@H]([C@@H](C)O)C(=O)N1)C(=O)O [Compound I-43, DOTA-K(-OEG-Z360)-OEG-f[CYwKTC]T-OH] 0.61

====

- EXPERIMENT SUMMARY: in vivo
- TEST CONDITIONS: BALB/c nude, mouse, in vivo, iv, total radioactivity, uptake Spleen
QUANTITY NAME: tissue uptake at 24 h (%ID/g)
Express your answer in %ID/g, writing the number without its unit.

For the compound shown here, C[C@@H](O)[C@H](NC(=O)[C@@H]1CSSC[C@H](NC(=O)[C@@H](Cc2ccccc2)NC(=O)[C@H](CCCCNC(=O)CC[C@H](NC(=O)CNC(=O)c2cccc(NC(=O)N[C@@H]3CN(C4CCCCC4)c4ccccc4N(CC(=O)C(C)(C)C)C3=O)c2)C(=O)O)NC(=O)COCCOCCNC(=O)CCC(C(=O)O)N2CCN(CC(=O)O)CCN(CC(=O)O)CCN(CC(=O)O)CC2)C(=O)N[C@@H](Cc2ccc(O)cc2)C(=O)N[C@H](Cc2c[nH]c3ccccc23)C(=O)N[C@@H](CCCCN)C(=O)N[C@@H]([C@@H](C)O)C(=O)N1)C(=O)O (stereo partly shown) [Compound I-19] , give the reported tissue uptake at 24 h. 0.68

====

- EXPERIMENT SUMMARY: in vivo
- TEST CONDITIONS: BALB/c nude, mouse, in vivo, iv, total radioactivity, uptake Liver
QUANTITY NAME: tissue uptake at 24 h (%ID/g)
Your answer is read as %ID/g, so omit the unit and give the number.

# get_value(readout='tissue uptake at 24 h', item= C[C@@H](O)[C@H](NC(=O)[C@@H]1CSSC[C@H](NC(=O)[C@@H](Cc2ccccc2)NC(=O)CC[C@H](NC(=O)[C@H](CCCCNC(=O)CC[C@H](NC(=O)CNC(=O)c2cccc(NC(=O)N[C@@H]3CN(C4CCCCC4)c4ccccc4N(CC(=O)C(C)(C)C)C3=O)c2)C(=O)O)NC(=O)CC[C@H](NC(=O)CN2CCN(CC(=O)O)CCN(CC(=O)O)CCN(CC(=O)O)CC2)C(=O)O)C(=O)O)C(=O)N[C@@H](Cc2ccc(O)cc2)C(=O)N[C@H](Cc2c[nH]c3ccccc23)C(=O)N[C@@H](CCCCN)C(=O)N[C@@H]([C@@H](C)O)C(=O)N1)C(=O)O [Compound I-9] ) 1.31

====

- EXPERIMENT SUMMARY: in vivo
- TEST CONDITIONS: BALB/c nude, mouse, in vivo, iv, total radioactivity, % ID/g Heart
- Method: To a 0.5 M NaOAc buffer (20-50 μL, pH=4.5) was added 4 μL of exemplary or comparator compound in DMSO stock solution (2000 μM) and 2 mCi ^177Lu (ITM Isotope Technologies Munich), the resulting mixture was heated to 95° C. for 15 min. The resulting product was analyzed by radio-TLC and radio-HPLC (column: Shim-pack GIST 5 μm 4.6*150 mm; buffer A: 0.2% formic acid H2O; buffer B: 0.1% formic acid acetonitrile; flow rate: 1 mL/min; gradient: 0-5 min: 10% B to 95% B; then 5-8 min: 95% B). […]
QUANTITY NAME: tissue uptake at 4 h (%ID/g)
Value expressed in %ID/g; do not type the unit.

Could you tell me which tissue uptake at 4 h is on file for C[C@@H](O)[C@H](NC(=O)[C@@H]1CSSC[C@H](NC(=O)[C@@H](Cc2ccccc2)NC(=O)COCCOCCNC(=O)COCCOCCNC(=O)[C@H](CCCCNC(=O)c2cccc(NC(=O)N[C@@H]3CN(C4CCCCC4)c4ccccc4N(CC(=O)C(C)(C)C)C3=O)c2)NC(=O)CN2CCN(CC(=O)O)CCN(CC(=O)O)CCN(CC(=O)O)CC2)C(=O)N[C@@H](Cc2ccc(O)cc2)C(=O)N[C@H](Cc2c[nH]c3ccccc23)C(=O)N[C@@H](CCCCN)C(=O)N[C@@H]([C@@H](C)O)C(=O)N1)C(=O)O [Compound 177Lu-I-39, metal not drawn] ? 0.84
